# credit: patent US20090111801A1

target: 5HT-Transporter (Homo sapiens); construct: Human platelet membranes (Oceanix Biosciences Corporation, Hanover, Md., USA) were thawed; tissue Oceanix Biosciences Corporation, Hanover, Md., USA; host or cells: human platelet membranes; assay: Binding experiment for the 5HT-transporter ([3H]paroxetine, human platelet membranes); conditions: [3H]paroxetine 0.5 nM, read-out: h-5HTT pIC50 (converted)
Sequence (P31645 whole entry): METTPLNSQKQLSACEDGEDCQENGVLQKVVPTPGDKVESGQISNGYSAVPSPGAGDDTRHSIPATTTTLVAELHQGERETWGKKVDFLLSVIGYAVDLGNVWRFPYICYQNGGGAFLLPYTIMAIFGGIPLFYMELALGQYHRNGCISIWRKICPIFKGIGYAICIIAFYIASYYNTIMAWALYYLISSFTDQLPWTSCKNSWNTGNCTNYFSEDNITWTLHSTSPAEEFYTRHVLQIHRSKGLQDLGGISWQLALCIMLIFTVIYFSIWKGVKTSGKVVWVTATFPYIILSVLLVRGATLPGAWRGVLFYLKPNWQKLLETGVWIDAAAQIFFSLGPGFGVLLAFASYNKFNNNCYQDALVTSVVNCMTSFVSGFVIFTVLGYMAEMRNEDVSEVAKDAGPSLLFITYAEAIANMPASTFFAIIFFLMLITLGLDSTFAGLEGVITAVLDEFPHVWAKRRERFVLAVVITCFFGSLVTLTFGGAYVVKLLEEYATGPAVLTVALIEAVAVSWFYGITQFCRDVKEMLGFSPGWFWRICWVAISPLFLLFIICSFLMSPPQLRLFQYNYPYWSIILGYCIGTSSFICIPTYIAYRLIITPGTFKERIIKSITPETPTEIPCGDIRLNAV
Endpoint name: IC50 (nM)
Respond with the bare value in nM.

Task item: Requested read-out: IC50. Entry: C/C(=C\c1ccccc1)CN1CCC(Nc2nccn(CCCN(Cc3ccccc3)S(=O)(=O)c3ccccc3)c2=O)CC1
Reply: 251

Task item: Now consider C/C(=C\c1ccccc1)CN1CCC(Nc2nccn(-c3ccc(C(=O)N4CCC(N(C)C)C4)cc3)c2=O)CC1 (centres unmarked) .
Reply: 398

Task item: Now consider C/C(=C\c1ccccc1)CN1CCC(Nc2nccn(-c3cccc(NC(=O)c4cccc(F)c4)c3)c2=O)CC1 .
Reply: 126

Task item: Now consider C/C(=C\c1ccccc1)CN1CCC(Nc2nccn(Cc3ccc(CNC(=O)NCCc4ccccc4)cc3)c2=O)CC1 .
Reply: 501

Task item: Now consider C/C(=C\c1ccccc1)CN1CCC(Nc2nccn(-c3ccc(C(=O)N4CCN(CCc5ccccc5)CC4)cc3)c2=O)CC1 .
Reply: 200

Task item: Now consider CCN(CC)c1ccc(C(=O)Cn2ccnc(NC3CCN(C/C(C)=C/c4ccccc4)CC3)c2=O)cc1 .
Reply: 1000

Task item: Now consider C/C(=C\c1ccccc1)CN1CCN(c2nccn(Cc3ccc(Cl)s3)c2=O)CC1 .
Reply: 3980

Task item: Now consider C/C(=C\c1ccccc1)CN1CCC(Nc2nccn(CC(=O)C34CC5CC(CC(C5)C3)C4)c2=O)CC1 .
Reply: 1260

Task item: Now consider CC(=O)NCc1ccc(Cn2ccnc(NC3CCN(C/C(C)=C/c4ccccc4)CC3)c2=O)cc1 .
Reply: 1260

Task item: Now consider C/C(=C\c1ccccc1)CN1CCC(Nc2nccn(Cc3ccc4ccccc4c3)c2=O)CC1 .
Reply: 398

Task item: Now consider COc1ccc(-c2nnc(Cn3ccnc(N4CCN(C/C(C)=C/c5ccccc5)CC4)c3=O)o2)cc1 .
Reply: 398

Task item: Now consider C/C(=C\c1ccccc1)CN1CCC(Nc2nccn(CC3CCCCO3)c2=O)CC1 (centres unmarked) .
Reply: 1000

Task item: Now consider C/C(=C\c1ccccc1)CN1CCC(Nc2nccn(-c3ccc(C(=O)N4CCN(Cc5ccccc5)CC4)cc3)c2=O)CC1 .
Reply: 1260

Task item: Now consider C/C(=C\c1ccccc1)CN1CCC(Nc2nccn(-c3ccc(CNCCN4CCCC4)cc3)c2=O)CC1 .
Reply: 158

Task item: Now consider C/C(=C\c1ccccc1)CN1CCC(Nc2nccn(CC(=O)N3CCOCC3)c2=O)CC1 .
Reply: 3980

Task item: Now consider C/C(=C\c1ccccc1)CN1CCC(Nc2nccn(CC3CCCCC3)c2=O)CC1 .
Reply: 1580

----------
target: hα2C receptor (Homo sapiens, UniProt P18825); construct: expressed in transfected cells; host or cells: CHO cells, stably transfected; membrane preparation; experiment: Radioligand binding experiment for α2C-adrenoceptor ([3H]raulwolscine, CHO cell membranes); conditions: [3H]raulwolscine binding, read-out: h-α2C pIC50 (converted)
Sequence (P18825 whole entry): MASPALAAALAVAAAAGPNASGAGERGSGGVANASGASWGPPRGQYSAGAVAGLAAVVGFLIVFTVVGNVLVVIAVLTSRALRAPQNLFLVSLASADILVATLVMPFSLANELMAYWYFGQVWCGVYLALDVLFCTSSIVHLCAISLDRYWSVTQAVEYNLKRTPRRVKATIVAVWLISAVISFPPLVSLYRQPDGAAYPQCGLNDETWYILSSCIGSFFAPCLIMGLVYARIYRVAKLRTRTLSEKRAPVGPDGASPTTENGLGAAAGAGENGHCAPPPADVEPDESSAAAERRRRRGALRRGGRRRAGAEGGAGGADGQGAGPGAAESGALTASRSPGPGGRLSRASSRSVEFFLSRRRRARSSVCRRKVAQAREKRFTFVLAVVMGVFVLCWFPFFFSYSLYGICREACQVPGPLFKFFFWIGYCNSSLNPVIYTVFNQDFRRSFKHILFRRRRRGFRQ
Endpoint name: IC50

Task item: Requested read-out: IC50. Entry: C/C(=C\c1ccccc1)CN1CCC(Nc2nccn(-c3ccc(C(=O)N4CCN(Cc5ccccc5)CC4)cc3)c2=O)CC1 [2-32]
Reply: 12.6 nM

Task item: Now consider C/C(=C\c1ccccc1)CN1CCC(Nc2nccn(Cc3ccccc3C#N)c2=O)CC1 [5-19] .
Reply: 20 nM

Task item: Now consider C/C(=C\c1ccccc1)CN1CCC(Nc2nccn(Cc3ccc4ccccc4n3)c2=O)CC1 [6-17] .
Reply: 15.8 nM

Task item: Now consider C/C(=C\c1ccccc1)CN1CCC(Nc2nccn(Cc3ccc(CNS(=O)(=O)c4ccc(F)cc4)cc3)c2=O)CC1 [1-162] .
Reply: 20 nM

Task item: Now consider COC(=O)C1CCN(C(=O)c2ccc(-n3ccnc(NC4CCN(C/C(C)=C/c5ccccc5)CC4)c3=O)cc2)CC1 [2-16] .
Reply: 5.01 nM

Task item: Now consider C/C(=C\c1ccccc1)CN1CCC(Nc2nccn(CC(=O)N(CCN3CCCC3C)Cc3ccc(F)cc3)c2=O)CC1 (stereo not drawn) [1-138] .
Reply: 0.794 nM

Task item: Now consider O=c1c(NC2CCN(C/C=C/c3ccccc3)CC2)nccn1CCN1CCOCC1 [16-7] .
Reply: 398 nM

Task item: Now consider C/C(=C\c1ccccc1)CN1CCC(Nc2nccn(CC(=O)N3CCC(N4CCCC4)CC3)c2=O)CC1 [2-17] .
Reply: 1.58 nM

Task item: Now consider C/C(=C\c1ccccc1)CN1CCC(Nc2nccn(CC(=O)N(C)Cc3ccccc3)c2=O)CC1 [1-52] .
Reply: 2.51 nM

Task item: Now consider COCCN(C)Cc1cccc(-n2ccnc(NC3CCN(C/C(C)=C/c4ccccc4)CC3)c2=O)c1 [1-25] .
Reply: 1 nM

Task item: Now consider C/C(=C\c1ccccc1)CN1CCC(Nc2nccn(CC(=O)Nc3ccc(N4CCOCC4)cc3)c2=O)CC1 [1-45] .
Reply: 39.8 nM

Task item: Now consider C/C(=C\c1ccccc1)CN1CCC(Nc2nccn(-c3ccc(C(=O)N4CCN(c5ncccn5)CC4)cc3)c2=O)CC1 [2-34] .
Reply: 5.01 nM

Task item: Now consider CC(=O)c1ccc(-n2ccnc(NC3CCN(C/C(C)=C/c4ccccc4)CC3)c2=O)cc1 [5-7] .
Reply: 10 nM

Task item: Now consider CCOC(=O)CN(Cc1ccccc1)C(=O)Cn1ccnc(NC2CCN(C/C(C)=C/c3ccccc3)CC2)c1=O [1-101] .
Reply: 6.31 nM

Task item: Now consider CCCCCn1ccnc(NC2CCN(C/C(C)=C/c3ccccc3)CC2)c1=O [7-5] .
Reply: 31.6 nM

Task item: Now consider CSCCn1ccnc(N2CCN(C/C(C)=C/c3ccccc3)CC2)c1=O [11-1] .
Reply: 79.4 nM

Task item: Now consider C/C(=C\c1ccccc1)CN1CCC(Nc2nccn(Cc3ccc(CNC(=O)C4CCCCC4)cc3)c2=O)CC1 [1-36] .
Reply: 39.8 nM

Task item: Now consider C/C(=C\c1ccccc1)CN1CCC(Nc2nccn(CC(=O)C(C)(C)C)c2=O)CC1 [7-8] .
Reply: 12.6 nM

Task item: Now consider C/C(=C\c1ccccc1)CN1CCC(Nc2nccn(CCN3C(=O)c4ccccc4C3=O)c2=O)CC1 [2-49] .
Reply: 15.8 nM

Task item: Now consider CC(=O)Cn1ccnc(NC2CCN(C/C(C)=C/c3ccccc3)CC2)c1=O [7-7] .
Reply: 12.6 nM

Task item: Now consider C/C(=C\c1ccccc1)CN1CCC(Nc2nccn(CCCN(C(=O)Cc3ccccc3)c3ccccc3)c2=O)CC1 [1-88] .
Reply: 12.6 nM

Task item: Now consider C/C(=C\c1ccccc1)CN1CCC(Nc2nccn(CC(=O)N(CCN(C)C)Cc3ccc(F)cc3)c2=O)CC1 [1-113] .
Reply: 3.98 nM

Task item: Now consider O=c1c(NC2CCN(C/C=C/c3ccccc3)CC2)nccn1CC1CCCCO1 (stereo not drawn) [16-19] .
Reply: 316 nM

Task item: Now consider C/C(=C\c1ccccc1)CN1CCC(Nc2nccn(CC(=O)NCc3cccnc3)c2=O)CC1 [1-141] .
Reply: 6.31 nM

Task item: Now consider C/C(=C\c1ccccc1)CN1CCC(Nc2nccn(Cc3ccc([N+](=O)[O-])cc3)c2=O)CC1 [5-25] .
Reply: 31.6 nM

Task item: Now consider COCCN(C)C(=O)c1ccc(-n2ccnc(NC3CCN(C/C(C)=C/c4ccccc4)CC3)c2=O)cc1 [1-27] .
Reply: 2.51 nM

Task item: Now consider C/C(=C\c1ccccc1)CN1CCN(c2nccn(CC3CCCCC3)c2=O)CC1 [14-3] .
Reply: 158 nM

Task item: Now consider C/C(=C\c1ccccc1)CN1CCC(Nc2nccn(Cc3ccc(CNS(=O)(=O)c4c(C)noc4C)cc3)c2=O)CC1 [1-171] .
Reply: 20 nM

Task item: Now consider O=c1c(NC2CCN(C/C=C/c3ccccc3)CC2)nccn1Cc1ccncc1 [16-20] .
Reply: 251 nM

Task item: Now consider C/C(=C\c1ccccc1)CN1CCC(Nc2nccn(Cc3cccc(Cl)c3)c2=O)CC1 [5-18] .
Reply: 39.8 nM

Task item: Now consider COC(=O)CC(=O)NCc1ccc(Cn2ccnc(NC3CCN(C/C(C)=C/c4ccccc4)CC3)c2=O)cc1 [1-100] .
Reply: 25.1 nM

Task item: Now consider C/C(=C\c1ccccc1)CN1CCC(Nc2nccn(CCCN(C)C(=O)c3ccc(F)cc3)c2=O)CC1 [1-79] .
Reply: 39.8 nM

Task item: Now consider C/C(=C\c1ccccc1)CN1CCC(Nc2nccn(-c3ccc(N4CCCCC4)cc3)c2=O)CC1 [2-7] .
Reply: 5.01 nM
